target: recombinant human PAI-1 (Homo sapiens, UniProt P05121);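 note: PAI-1 preincubated with compound, then two-chain tPA added, residual tPA activity read with fluorogenic Pyr-Gly-Arg-MCA substrate after 30 min at room temperature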
Sequence (P05121 24-402): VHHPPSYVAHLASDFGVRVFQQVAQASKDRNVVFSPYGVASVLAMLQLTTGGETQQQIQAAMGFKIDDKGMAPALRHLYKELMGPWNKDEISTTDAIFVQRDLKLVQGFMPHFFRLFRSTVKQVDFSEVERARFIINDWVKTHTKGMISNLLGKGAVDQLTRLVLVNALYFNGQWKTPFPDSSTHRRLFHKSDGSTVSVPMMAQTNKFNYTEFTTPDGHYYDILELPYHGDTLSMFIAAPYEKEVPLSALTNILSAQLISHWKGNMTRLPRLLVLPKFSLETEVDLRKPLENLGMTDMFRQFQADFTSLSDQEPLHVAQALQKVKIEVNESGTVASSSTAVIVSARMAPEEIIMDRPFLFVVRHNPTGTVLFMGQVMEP
protocol.summary: biochemical
conditions: read-out: Inhibition Rate of PAI-1 Activity (%)
measured.quantity: inhibition at 25 µM (%)
Report only the number, with the unit % understood.

Some solved entries appear below for comparison.
molecule | scale.unit | inhibition at 25 µM
CC(C)(C)c1ccc(COc2cc(CCC(=O)O)cc(Oc3ccc(OC(F)(F)F)cc3)c2)cc1 | % | 98
CC(C)(C)c1ccc(COc2ccc(-c3ccc(OC(F)(F)F)cc3)cc2OCCCC(=O)O)cc1 | % | 96
O=C(O)C(=O)N(CCCCCc1ccccc1)c1ccc(-c2ccc(OC(F)(F)F)cc2)cc1 | % | 95

Using the record for CC(C)(C)c1ccc(Oc2ccc(Oc3ccc(OC(F)(F)F)cc3)cc2/C=C/C(=O)O)cc1 , report its inhibition at 25 µM.
99

Another molecule: Cc1ccc(-c2ccc(N(Cc3ccc(C(C)(C)C)cc3)C(=O)C(=O)O)cc2)cc1
52

Another molecule: CC(C)(C)c1ccc(CN(C(=O)C(=O)O)c2ccc(-c3ccc(OC(F)(F)F)cc3)c(CCC(=O)O)c2)cc1
64

Another molecule: CC(c1ccc(C(C)(C)C)cc1)N(C(=O)C(=O)O)c1ccc(-c2ccc(OC(F)(F)F)cc2)cc1 (stereo not drawn)
89

Another molecule: COc1ccc(CN(C(=O)C(=O)O)c2ccc(-c3ccc(OC(F)(F)F)cc3)cc2)cc1
34

Another molecule: Cc1cc(-c2ccc(OC(F)(F)F)cc2)cc(CCC(=O)O)c1OCc1ccc(C(C)(C)C)cc1
95

Another molecule: CC(C)(C)c1ccc(CN(C(=O)C(=O)O)c2ccc(Cl)cc2Oc2ccc(OC(F)(F)F)cc2)cc1
87

Another molecule: CC(C)(C)c1ccc(Oc2cc(-c3ccc(OC(F)(F)F)cc3)ccc2OC(F)C(=O)O)cc1 (stereo not drawn)
99

Another molecule: CC(C)(C)c1ccc(CN(C(=O)C(=O)O)c2cc(Oc3ccc(OC(F)(F)F)cc3)cc(C(F)(F)F)c2)cc1
87

Another molecule: CC(C)(C)c1ccc(CN(C(=O)C(=O)O)c2ccc(Oc3ccc(OC(F)(F)F)cc3)cc2)cc1
82

Another molecule: CC(C)(C)c1ccc(COc2ccc(Nc3ccc(OC(F)(F)F)cc3)cc2CCC(=O)O)cc1
92

From: patent EP2272817A1
